# TESTED_ON: Prolyl 3-hydroxylase OGFOD1 (Homo sapiens, UniProt Q8N543)
# Sequence (Q8N543 whole entry): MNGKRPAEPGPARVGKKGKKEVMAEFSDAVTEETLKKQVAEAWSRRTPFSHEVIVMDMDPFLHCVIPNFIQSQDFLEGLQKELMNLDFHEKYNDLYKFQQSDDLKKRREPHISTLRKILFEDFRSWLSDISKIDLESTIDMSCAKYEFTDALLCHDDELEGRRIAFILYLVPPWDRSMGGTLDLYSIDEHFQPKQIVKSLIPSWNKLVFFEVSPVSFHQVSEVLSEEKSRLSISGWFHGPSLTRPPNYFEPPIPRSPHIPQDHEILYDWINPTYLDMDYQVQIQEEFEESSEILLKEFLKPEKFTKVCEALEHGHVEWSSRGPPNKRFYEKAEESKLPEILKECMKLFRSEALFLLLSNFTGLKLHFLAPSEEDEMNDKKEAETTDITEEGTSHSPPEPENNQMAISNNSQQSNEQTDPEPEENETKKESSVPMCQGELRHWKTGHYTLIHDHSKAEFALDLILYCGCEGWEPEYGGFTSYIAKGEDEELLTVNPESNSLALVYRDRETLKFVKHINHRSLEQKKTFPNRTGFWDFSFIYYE
# TEST: Inhibition of recombinant human OGFOD1 using 2OG as substrate and Fe2 as co-factor assessed as hydroxylation incubated for 15 mins in presence of L-ascorbate by MALDI-TOF MS analysis
OBSERVED_PROPERTY: pIC50
Entry type: numeric. Quantity: pIC50, the -log10 of concentration in molar units.

1) O=C(O)CNC(=O)c1c(O)n(C2CCCCC2)c(=O)n(C2CCCCC2)c1=O: 5.68

q: Endpoint output: pIC50 of CC(C)(C)OC(=O)c1ccc(-n2[nH]cc(-n3ccnn3)c2=O)nc1 . Value?
a: 5.29

* * *

# TESTED_ON: Prolyl 4-hydroxylase (Paramecium bursaria Chlorella virus 1) (UniProt Q84406)
# Sequence (whole entry): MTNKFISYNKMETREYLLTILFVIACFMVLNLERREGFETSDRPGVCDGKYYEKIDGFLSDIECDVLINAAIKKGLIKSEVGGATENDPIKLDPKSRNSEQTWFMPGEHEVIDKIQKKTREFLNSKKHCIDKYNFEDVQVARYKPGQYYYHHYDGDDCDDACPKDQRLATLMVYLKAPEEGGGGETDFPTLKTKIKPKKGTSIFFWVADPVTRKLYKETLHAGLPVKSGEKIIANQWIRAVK
# TEST: Substrate activity at N-terminal His6-tagged recombinant Paramecium bursaria chlorella virus 1 CPH expressed in Escherichia coli Rosetta 2 (DE3) cells assessed as substrate hydroxylation at 100 uM incubated for 16 hrs in presence of 2OG by MALDI TOF MS analysis
Activity calls are given as the source filed them. The rule behind the calls is not given here. Where a SMILES comes first, the peptide text is derived from it. [ ]: non-standard residue; d: D form. Hyp = O=C(O)[C@@H]1C[C@@H](O)CN1
OBSERVED_PROPERTY: Activity

1) C[C@H](NC(=O)[C@H](CCCNC(=N)N)NC(=O)[C@H](CCCCN)NC(=O)[C@@H]1C[C@@H](O)CN1C(=O)[C@H](C)NC(=O)[C@@H]1CCCN1)C(=O)N1CCC[C@H]1C(=O)N[C@@H](CCCCN)C(=O)O (H-PA[Hyp]KRAPK-OH): inactive
2) CSCC[C@H](NC(=O)[C@H](CCCCN)NC(=O)[C@@H]1C[C@@H](O)CN1C(=O)[C@H](C)NC(=O)[C@@H]1CCCN1)C(=O)N[C@@H](C)C(=O)N1CCC[C@H]1C(=O)N[C@@H](CCCCN)C(=O)O (H-PA[Hyp]KMAPK-OH): inactive
3) C[C@H](NC(=O)[C@@H]1CCCN1)C(=O)N1C[C@H](O)C[C@H]1C(=O)N[C@@H](CCCCN)C(=O)N1CCC[C@H]1C(=O)N[C@@H](C)C(=O)N1CCC[C@H]1C(=O)N[C@@H](CCCCN)C(=O)O (H-PA[Hyp]KPAPK-OH): inactive
4) CC(C)C[C@H](NC(=O)[C@H](CCCCN)NC(=O)[C@@H]1C[C@@H](O)CN1C(=O)[C@H](C)NC(=O)[C@@H]1CCCN1)C(=O)N[C@@H](C)C(=O)N1CCC[C@H]1C(=O)N[C@@H](CCCCN)C(=O)O (H-PA[Hyp]KLAPK-OH): inactive

* * *

# TESTED_ON: UniProt:Q84406
# TEST: Inhibition of N-terminal His6-tagged recombinant Paramecium bursaria chlorella virus 1 CPH expressed in Escherichia coli Rosetta 2 (DE3) cells pre-incubated for 5 mins before 2OG as substrate and Fe2 as co-factor addition in presence of L-ascorbate and measured after 5 mins MALDI TOF MS analysis
OBSERVED_PROPERTY: Ki (µM)
Record the value in µM, omitting the unit from your answer.

Completed entries (count: 6):
1. O=C(O)CNC(=O)c1ncc(-c2cccc(Cl)c2)cc1O: 0.28
2. Cc1nc(C(=O)NCC(=O)O)c(O)c2ccc(Oc3ccccc3)cc12 [ROXADUSTAT]: 1.07
3. O=C(O)CNC(=O)C(=O)O [N-OXALYLGLYCINE]: 48.7
4. O=C(O)CNC(=O)c1c(O)n(C2CCCCC2)c(=O)n(C2CCCCC2)c1=O: 7.65
5. O=c1c(-n2ccnn2)c[nH]n1-c1cc(N2CCOCC2)ncn1 [MOLIDUSTAT]: 16.1
6. O=C(O)c1ccnc(C(=O)O)c1: 3.28

q: May I ask what Ki has been recorded for O=C(O)CNC(=O)c1nc(Cl)c2ccccc2c1O ?
a: 0.71

* * *

As shown below, each of these compounds has a reported IC50 value.
# TESTED_ON: Prolyl 4-hydroxylase (Paramecium bursaria Chlorella virus 1, UniProt Q84406)
# TEST: Inhibition of N-terminal His6-tagged recombinant Paramecium bursaria chlorella virus 1 CPH expressed in Escherichia coli Rosetta 2 (DE3) cells pre-incubated for 5 mins before 2OG as substrate and Fe2 as co-factor addition in presence of L-ascorbate and measured after 5 mins MALDI TOF MS analysis
// return numeric value only (unit: µM, not printed)

Below are worked cases with known answers.
1. O=C(O)CNC(=O)C(=O)O: 21.2
2. O=C(O)c1c[nH]c2c(ccc3cccnc32)c1=O: 15.7
3. O=C(O)CNC(=O)c1nc(Cl)c2ccccc2c1O: 4.5
4. Cc1nc(C(=O)NCC(=O)O)c(O)c2ccc(Oc3ccccc3)cc12: 5
5. O=C(O)C[C@H](C(=O)O)[C@@H](O)C(=O)O: 284

q: For the compound shown here, O=C(O)c1ccc(O)c2ncccc12 , give the reported IC50.
a: 47.2

q: Could you tell me which IC50 is on file for O=C(O)CNC(=O)c1c(O)c2ccccc2n(Cc2ccccc2)c1=O ?
a: 8.5

q: // lookup IC50 for O=c1c(-n2ccnn2)c[nH]n1-c1cc(N2CCOCC2)ncn1
a: 26.8

q: What value of measured IC50 is listed for O=C(O)CNC(=O)c1c(O)n(C2CCCCC2)c(=O)n(C2CCCCC2)c1=O ?
a: 13.4

q: Reported IC50 for O=C(O)c1ccnc(C(=O)O)c1 : what is it?
a: 5.3

* * *

# TESTED_ON: Prolyl 4-hydroxylase (Paramecium bursaria Chlorella virus 1)
# TEST: Substrate activity at N-terminal His6-tagged recombinant Paramecium bursaria chlorella virus 1 CPH expressed in Escherichia coli Rosetta 2 (DE3) cells assessed as substrate hydroxylation at 100 uM incubated for 16 hrs in presence of 2OG by MALDI TOF MS analysis
Activity calls are given as the source filed them. The rule behind the calls is not given here. Where a SMILES comes first, the peptide text is derived from it. [ ]: non-standard residue; d: D form. Hyp = O=C(O)[C@@H]1C[C@@H](O)CN1
OBSERVED_PROPERTY: Activity

1) C[C@H](NC(=O)[C@H](CS)NC(=O)[C@H](CCCCN)NC(=O)[C@@H]1C[C@@H](O)CN1C(=O)[C@H](C)NC(=O)[C@@H]1CCCN1)C(=O)N1CCC[C@H]1C(=O)N[C@@H](CCCCN)C(=O)O (H-PA[Hyp]KCAPK-OH): inactive
2) C[C@H](NC(=O)[C@H](CCCCN)NC(=O)[C@H](CCCCN)NC(=O)[C@@H]1C[C@@H](O)CN1C(=O)[C@H](C)NC(=O)[C@@H]1CCCN1)C(=O)N1CCC[C@H]1C(=O)N[C@@H](CCCCN)C(=O)O (H-PA[Hyp]KKAPK-OH): inactive

* * *

# TESTED_ON: Hypoxia-inducible factor 1-alpha inhibitor (Homo sapiens)
# Sequence (Q9NWT6 whole entry): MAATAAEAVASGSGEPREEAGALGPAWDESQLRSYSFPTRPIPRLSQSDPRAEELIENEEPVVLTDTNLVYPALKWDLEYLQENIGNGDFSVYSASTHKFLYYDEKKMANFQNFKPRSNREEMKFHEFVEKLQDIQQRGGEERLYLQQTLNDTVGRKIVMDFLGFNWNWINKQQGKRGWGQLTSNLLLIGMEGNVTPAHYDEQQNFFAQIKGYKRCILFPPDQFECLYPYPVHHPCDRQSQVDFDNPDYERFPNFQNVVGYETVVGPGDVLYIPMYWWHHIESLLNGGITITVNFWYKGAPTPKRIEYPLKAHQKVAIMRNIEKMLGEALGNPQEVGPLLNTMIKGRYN
# TEST: Inhibition of recombinant human FIH using 2OG as substrate and Fe2 as co-factor assessed as hydroxylation incubated for 15 mins in presence of L-ascorbate by LC-MS analysis
OBSERVED_PROPERTY: IC50 (µM)
A number alone suffices; assume µM.

q: What value of measured IC50 is listed for O=c1c(-n2ccnn2)c[nH]n1-c1cc(N2CCOCC2)ncn1 ?
a: 31

* * *

# TESTED_ON: Egl nine homolog 1 (Homo sapiens, UniProt Q9GZT9)
# Sequence (Q9GZT9 whole entry): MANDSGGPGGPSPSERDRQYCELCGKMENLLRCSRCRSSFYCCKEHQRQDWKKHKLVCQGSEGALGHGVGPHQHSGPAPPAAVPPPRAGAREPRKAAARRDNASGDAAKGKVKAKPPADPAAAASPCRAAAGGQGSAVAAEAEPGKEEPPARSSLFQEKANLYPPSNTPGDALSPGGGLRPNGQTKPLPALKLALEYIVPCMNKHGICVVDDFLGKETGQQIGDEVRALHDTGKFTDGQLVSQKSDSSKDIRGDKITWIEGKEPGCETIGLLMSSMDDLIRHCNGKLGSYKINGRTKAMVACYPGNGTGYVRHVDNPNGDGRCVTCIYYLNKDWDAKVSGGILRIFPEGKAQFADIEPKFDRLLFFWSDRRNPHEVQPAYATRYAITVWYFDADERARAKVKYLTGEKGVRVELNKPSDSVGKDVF
# TEST: Inhibition of recombinant human PHD2 by alphascreen assay
OBSERVED_PROPERTY: pIC50
Recall that pIC50 is obtained by taking minus log10 of the concentration measured in molar.

q: Report pIC50 for O=C(O)CNC(=O)c1c(O)c2ccccc2n(Cc2ccccc2)c1=O please.
a: 7.66

* * *

# TESTED_ON: Prolyl 4-hydroxylase (Paramecium bursaria Chlorella virus 1) (UniProt Q84406)
# Sequence (whole entry): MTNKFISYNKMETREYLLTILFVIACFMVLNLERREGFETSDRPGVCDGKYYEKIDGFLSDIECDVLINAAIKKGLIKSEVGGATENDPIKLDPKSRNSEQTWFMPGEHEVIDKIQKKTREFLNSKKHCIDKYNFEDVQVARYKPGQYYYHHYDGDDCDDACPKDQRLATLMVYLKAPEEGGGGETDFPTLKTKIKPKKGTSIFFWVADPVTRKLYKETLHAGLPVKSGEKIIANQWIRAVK
# TEST: Substrate activity at N-terminal His6-tagged recombinant Paramecium bursaria chlorella virus 1 CPH expressed in Escherichia coli Rosetta 2 (DE3) cells assessed as substrate hydroxylation at 100 uM incubated for 16 hrs in presence of 2OG by MALDI TOF MS analysis
The source made the active and inactive calls. No cut-off for these calls is given here. Where a SMILES comes first, the peptide text is derived from it. [ ]: non-standard residue; d: D form. Pro(cis-4-F) = O=C(O)[C@@H]1C[C@H](F)CN1; Hyp = O=C(O)[C@@H]1C[C@@H](O)CN1
Give one outcome, nothing more. List: y for active, n for inactive

1) C[C@H](NC(=O)[C@@H]1CCCN1)C(=O)N1C[C@H](O)C[C@H]1C(=O)N[C@@H](CCCCN)C(=O)N1C[C@@H](F)C[C@H]1C(=O)N[C@@H](C)C(=O)N1CCC[C@H]1C(=O)N[C@@H](CCCCN)C(=O)O (H-PA[Hyp]K[Pro(cis-4-F)]APK-OH): y

Let us examine a further case.
q: What call does the record list for C[C@H](NC(=O)[C@H](Cc1ccccc1)NC(=O)[C@H](CCCCN)NC(=O)[C@@H]1C[C@@H](O)CN1C(=O)[C@H](C)NC(=O)[C@@H]1CCCN1)C(=O)N1CCC[C@H]1C(=O)N[C@@H](CCCCN)C(=O)O (H-PA[Hyp]KFAPK-OH) ?
a: n
